tested on: Parental HCT116 cells (MTAP WT); assay: SDMA high-content imaging assay, parental cells; assay type: cell-based; conditions: Homo sapiens, HCT-116, 72 h; parental HCT116, 3 d incubation; read-out: IC50, reduction of cellular SDMA
observable: IC50 (nM)
Reply numerically in nM, unit not repeated.

Qu. What measured IC50 goes with O=C(NC[C@H](O)CN1CCc2ccccc2C1)c1cc(NC2COC2)ncn1 ?
Ans. 9.6

###

test system: MTAP-deleted HCT116 cells; assay: Cell viability (CellTiter-Glo), MTAP-deleted cells; format: cell-based; settings: Homo sapiens, HCT-116; MTAP-deleted HCT116, 6 d incubation; read-out: IC50, cell viability
observable: IC50 (nM)
Reply numerically in nM, unit not repeated.

Qu. Please tell me: IC50 of O=C(NC[C@H](O)CN1CCc2ccccc2C1)c1cc(NC2COC2)ncn1 [EPZ015666] , system MTAP-deleted HCT116 cells?
Ans. 600

###

system: MTAP-deleted HCT116 cells; experiment: SDMA high-content imaging assay, MTAP-deleted cells; type: cell-based; details: Homo sapiens, HCT-116, 72 h; MTAP-deleted HCT116, 3 d incubation; read-out: IC50, reduction of cellular SDMA
observable: IC50 (nM)
Reply numerically in nM, unit not repeated.

Qu. What measured IC50 goes with O=C(NC[C@H](O)CN1CCc2ccccc2C1)c1cc(NC2COC2)ncn1 [EPZ015666] ?
Ans. 4.3
